- System tested: Stimulator of interferon genes protein (Homo sapiens)
- Sequence (Q86WV6 whole entry): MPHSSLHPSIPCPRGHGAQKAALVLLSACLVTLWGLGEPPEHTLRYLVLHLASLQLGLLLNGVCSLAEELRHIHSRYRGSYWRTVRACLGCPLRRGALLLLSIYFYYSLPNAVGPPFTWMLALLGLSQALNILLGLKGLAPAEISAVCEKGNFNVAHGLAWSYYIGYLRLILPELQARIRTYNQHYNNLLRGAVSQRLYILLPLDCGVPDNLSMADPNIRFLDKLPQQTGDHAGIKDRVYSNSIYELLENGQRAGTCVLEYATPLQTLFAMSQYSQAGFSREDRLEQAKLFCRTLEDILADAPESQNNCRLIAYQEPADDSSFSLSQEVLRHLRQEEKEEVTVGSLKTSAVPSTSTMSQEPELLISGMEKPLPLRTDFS
- Run description: Displacement of [3H]-cGAMP from wild type human STING by filtration binding assay
pIC50: −log10 of the molar value.
Experimental readout: pIC50

Report pIC50 for COc1c(Cl)ccc2c(=O)c3ccc(C(C)(C)C)cc3n(CC(=O)O)c12 tested on Stimulator of interferon genes protein (Homo sapiens).
> 4.70

###

Assign EC50 to each entry below.
- System tested: UniProt Q86WV6
- Run description: Inhibition of STING in human THP1 cells in presence of digitonin by IFN reporter gene assay
- Format: cell-based
Give bare numbers, in µM.

Smiles	Unit of measure	Number
Nc1ncnc2c1ncn2[C@@H]1O[C@@H]2CO[P@@](=O)(S)O[C@@H]3[C@H](F)[C@@H](CO[P@@](=O)(S)O[C@H]2[C@H]1F)O[C@H]3n1cnc2c(N)ncnc21	µM	0.19
Nc1nc2c(ncn2[C@@H]2O[C@@]34CO[C@@H]2[C@@H]3O[P@](=O)(S)OC[C@@]23CO[C@@H]([C@H](n5cnc6c(N)ncnc65)O2)[C@@H]3O[P@](=O)(S)OC4)c(=O)[nH]1	µM	19.3
Nc1nc2c(ncn2[C@@H]2O[C@@H]3CO[P@@](=O)(S)O[C@H]4[C@H]5OC[C@]4(CO[P@@](=O)(S)O[C@H]3[C@H]2O)O[C@H]5n2cnc3c(N)ncnc32)c(=O)[nH]1	µM	5.8

// query EC50 value for entry Nc1ncnc2c1ncn2[C@@H]1O[C@@H]2CO[P@@](=O)(S)O[C@@H]3[C@H](F)[C@@H](CO[P@@](=O)(S)O[C@H]2[C@H]1O)O[C@H]3n1cnc2c(N)ncnc21
0.399

###

- System tested: UniProt Q86WV6
- Run description: Inhibition of STING in human THP1 cells by IFN reporter gene assay
- Assay type: cell-based
Assign EC50 to each entry below.
Give bare numbers, in µM.

Answered examples (3):
Molecule	EC50 [µM]
Nc1ncnc2c1ncn2[C@@H]1O[C@@H]2CO[P@@](=O)(S)O[C@@H]3C[C@@H](CO[P@@](=O)(S)O[C@H]2[C@H]1F)O[C@H]3n1cnc2c(N)ncnc21	10.2
Nc1ncnc2c1ncn2[C@@H]1O[C@@H]2CO[P@@](=O)(S)O[C@@H]3[C@H](F)[C@@H](CO[P@@](=O)(S)O[C@H]2[C@H]1F)O[C@H]3n1cnc2c(N)ncnc21	4.5
Nc1ncnc2c1ncn2[C@@H]1O[C@@H]2CO[P@@](=O)(S)O[C@@H]3[C@H](F)[C@@H](CO[P@@](=O)(S)O[C@H]2[C@H]1O)O[C@H]3n1cnc2c(N)ncnc21	11.2

Switching to the query record.
// query EC50 value for entry C=C1[C@@H](n2cnc3c(N)ncnc32)[C@H](F)[C@@H]2O[P@@](O)(=S)OC[C@H]3O[C@@H](n4cnc5c(=O)[nH]c(N)nc54)[C@H](OP(O)(=S)OC[C@@H]12)[C@@H]3F (some centres not stated)
0.74

###

Assign EC50 to each entry below.
- System tested: Stimulator of interferon genes protein (Homo sapiens)
- Run description: Inhibition of STING in human THP1 cells
- Type: cell-based
Please answer in the form of a number followed by its unit of measurement.

> print(dat)
                                     smiles  experimental.readout   result
1  Nc1ncnc2c1ncn2[C@@H]1O[C@@H]2CNC(=S)N[C@H]3[C@@H](O)[C@H](n4cnc5c(N)ncnc54)O[C@@H]3CNC(=S)N[C@H]2[C@H]1O                  EC50  22.2 µM

Switching to the query record.
Report EC50 for Nc1ncnc2c1ncn2[C@@H]1O[C@@H]2CNC(=O)N[C@H]3[C@@H](O)[C@H](n4cnc5c(N)ncnc54)O[C@@H]3CNC(=O)N[C@H]2[C@H]1O tested on Stimulator of interferon genes protein (Homo sapiens).
25.4 µM
